assayedSystem: PRPF40A WW12 (tandem WW domains, residues 141-236) (human, UniProt O75400 141-236)
Sequence (O75400 141-236): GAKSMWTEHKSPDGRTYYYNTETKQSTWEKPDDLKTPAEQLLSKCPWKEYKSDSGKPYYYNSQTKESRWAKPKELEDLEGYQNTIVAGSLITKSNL
testProtocol: ITC
Below: a set of entries, each annotated with reported Kd.
Give the value in µM but do not write µM after it.

GAMSGSPPPPPPPPPPSGSN [GB1-polyproline peptide P10]: 28.6

Switching to the query record.
Give the measured Kd of GAMSGSPPPPPPPPPPPPPPPPSGSN [GB1-tagged polyproline peptide P16] .
3.35
